Target: T1, human CD24 (human, UniProt P25063 27-59, heavily glycosylated, GPI-anchored (as described in the background))
T1 construct: whole, on cells; Target of all cell-based FACS assays; also called hCD24; Cluster of differentiation 24
T1 chain (looked up): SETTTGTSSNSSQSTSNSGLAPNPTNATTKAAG
Assay: FACS, CHOK1-hCD24 cells
Method: Sequences of some of antibodies from Table 1 were selected to generate and produce human IgG4 chimeric antibodies. […] The protocol for FACs analysis is described as follows: [0536] a. Digested cells using TrypLE™ Express Enzyme (IX); Centrifuged the harvested cells at 400 g for 5 min and discarding the supernatant. [0537] b. Washed the cells 2 times with cold FACS buffer by centrifuging at 400 g for 5 min and discarding the supernatant. [0538] c. […] Incubate at 40° C. for 1 h. [0539] d. […]

{"columns": ["binder", "Max MFI"],
 "data": [
  ["ch56A7E3-hIgG4 (antibody, V domains shown, chimeric) VH: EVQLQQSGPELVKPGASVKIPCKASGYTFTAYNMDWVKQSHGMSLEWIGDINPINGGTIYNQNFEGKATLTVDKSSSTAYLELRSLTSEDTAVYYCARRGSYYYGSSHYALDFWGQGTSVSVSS VL: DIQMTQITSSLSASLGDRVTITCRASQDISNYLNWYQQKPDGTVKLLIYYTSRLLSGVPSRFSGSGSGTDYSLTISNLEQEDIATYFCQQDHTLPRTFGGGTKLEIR", 54100],
  ["71A4F12 (antibody, V domains shown, mouse monoclonal antibody) VH: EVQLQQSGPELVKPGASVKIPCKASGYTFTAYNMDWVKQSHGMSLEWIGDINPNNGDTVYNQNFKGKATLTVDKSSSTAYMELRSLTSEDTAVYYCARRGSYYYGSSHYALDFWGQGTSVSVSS VL: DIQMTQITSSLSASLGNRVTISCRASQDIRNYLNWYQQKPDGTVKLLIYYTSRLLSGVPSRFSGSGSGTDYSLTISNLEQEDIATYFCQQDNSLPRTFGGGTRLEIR", 28800]
]}
